# ASSAYED TARGET: T1, human LTBP1-proTGFβ1 complex (human, UniProt Q14766 347-1721; P01137 30-390)
# T1 construct: Large latent complex: one presenting molecule disulfide-linked to a proTGFβ1 dimer; also called Hu LTBP1-proTGFβ1; huLTBP1 proTGFβ1
# T1 sequence (Q14766 347-1721 limits assumed, chain 1 of 2): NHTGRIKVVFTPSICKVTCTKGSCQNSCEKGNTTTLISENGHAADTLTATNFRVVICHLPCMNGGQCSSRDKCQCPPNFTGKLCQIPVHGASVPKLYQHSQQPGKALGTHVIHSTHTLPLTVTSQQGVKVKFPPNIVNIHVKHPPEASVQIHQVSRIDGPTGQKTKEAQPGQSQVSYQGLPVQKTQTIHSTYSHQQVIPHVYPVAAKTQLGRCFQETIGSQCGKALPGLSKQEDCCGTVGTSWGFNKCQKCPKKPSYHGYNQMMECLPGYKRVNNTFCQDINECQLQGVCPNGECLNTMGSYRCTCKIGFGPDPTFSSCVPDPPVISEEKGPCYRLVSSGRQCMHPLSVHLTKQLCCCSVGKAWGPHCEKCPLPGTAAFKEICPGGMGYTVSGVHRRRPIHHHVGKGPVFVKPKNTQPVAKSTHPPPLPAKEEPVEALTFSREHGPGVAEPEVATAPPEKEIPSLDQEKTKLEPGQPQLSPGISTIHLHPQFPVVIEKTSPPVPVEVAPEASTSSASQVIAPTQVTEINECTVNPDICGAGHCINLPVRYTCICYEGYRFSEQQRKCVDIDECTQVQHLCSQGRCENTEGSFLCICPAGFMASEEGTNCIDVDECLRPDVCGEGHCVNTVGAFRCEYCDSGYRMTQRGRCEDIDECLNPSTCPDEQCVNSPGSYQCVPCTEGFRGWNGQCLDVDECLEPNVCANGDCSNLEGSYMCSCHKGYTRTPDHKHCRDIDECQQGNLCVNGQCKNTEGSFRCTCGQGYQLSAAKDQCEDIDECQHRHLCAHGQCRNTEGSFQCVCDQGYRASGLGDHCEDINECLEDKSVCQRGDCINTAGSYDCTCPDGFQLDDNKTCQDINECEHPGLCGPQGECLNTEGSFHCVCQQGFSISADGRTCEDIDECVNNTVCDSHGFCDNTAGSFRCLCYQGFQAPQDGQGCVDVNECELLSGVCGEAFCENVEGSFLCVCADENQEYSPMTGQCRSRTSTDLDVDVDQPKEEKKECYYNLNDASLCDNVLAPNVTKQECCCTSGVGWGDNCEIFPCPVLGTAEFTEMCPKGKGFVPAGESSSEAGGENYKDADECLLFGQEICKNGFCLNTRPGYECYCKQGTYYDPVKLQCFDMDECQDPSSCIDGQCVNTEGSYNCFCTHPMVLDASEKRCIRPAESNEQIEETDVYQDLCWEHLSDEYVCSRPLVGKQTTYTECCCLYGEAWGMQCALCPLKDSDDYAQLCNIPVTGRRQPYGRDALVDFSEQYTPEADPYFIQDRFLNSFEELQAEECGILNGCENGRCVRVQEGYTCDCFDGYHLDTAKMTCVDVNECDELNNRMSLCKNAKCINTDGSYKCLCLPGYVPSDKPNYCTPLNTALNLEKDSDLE
# T1 sequence (P01137 30-390 limits assumed, chain 2 of 2): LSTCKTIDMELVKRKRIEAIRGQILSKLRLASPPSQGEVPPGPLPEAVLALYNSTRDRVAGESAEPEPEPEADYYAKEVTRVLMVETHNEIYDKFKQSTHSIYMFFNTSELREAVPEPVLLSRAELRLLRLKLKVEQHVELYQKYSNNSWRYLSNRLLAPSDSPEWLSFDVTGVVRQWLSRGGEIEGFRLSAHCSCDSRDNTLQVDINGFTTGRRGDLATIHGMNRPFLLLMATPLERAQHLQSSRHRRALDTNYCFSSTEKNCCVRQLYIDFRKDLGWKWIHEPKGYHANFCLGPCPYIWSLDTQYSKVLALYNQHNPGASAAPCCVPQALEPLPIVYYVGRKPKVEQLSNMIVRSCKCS
# PROTOCOL DESCRIPTION: SPR Biacore 8K, Fab over captured antigen
MEASURED METRIC: koff (s⁻¹)
Give bare numbers, in s⁻¹.

The examples below pair each entry with its known result.
SR-AB55-HuFab (Fab, V domains shown, Human Fab; also called SR-AB55 Fab) VH: QVQLVESGGGVVQPGRSLRLSCAASGFTFRSYVMHWVRQAPGKGLEWVAVISHEGSGKYYADSVKGRFTISRDNSKNTLYLQMNSLRAEDTAVYYCALPRIAARRGGFGSWGQGTLVTVSS VL: NFMLTQPHSVSESPGKTVTISCTRSSGNIDYNYVQWYQQRPGSSPTTVIYEDNVRPSGVPDRFSGSIDSSSNSASLTISGLKTEDEADYYCQSYDYDNQAVVFGGGTKLTVL ... 0.000113
SR-AB54-HuFab (Fab, V domains shown, Human Fab; also called SR-AB54 Fab) VH: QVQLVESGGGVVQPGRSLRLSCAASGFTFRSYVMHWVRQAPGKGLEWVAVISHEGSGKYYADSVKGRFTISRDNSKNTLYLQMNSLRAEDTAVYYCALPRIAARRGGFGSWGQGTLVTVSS VL: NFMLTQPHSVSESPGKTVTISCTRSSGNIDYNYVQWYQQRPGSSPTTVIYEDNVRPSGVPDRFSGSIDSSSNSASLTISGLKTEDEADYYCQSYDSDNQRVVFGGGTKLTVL ... 8.83e-05

Pending binder:
Look up and report measured koff for this entry: SR-AB57-HuFab (Fab, V domains shown, Human Fab; also called SR-AB57 Fab) VH: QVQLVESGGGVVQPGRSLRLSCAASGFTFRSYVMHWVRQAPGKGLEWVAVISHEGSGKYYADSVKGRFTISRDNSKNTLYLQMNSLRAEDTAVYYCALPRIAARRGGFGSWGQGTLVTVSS VL: NFMLTQPHSVSESPGKTVTISCTRSSGNIDYNYVQWYQQRPGSSPTTVIYEDNVRPSGVPDRFSGSIDSSSNSASLTISGLKTEDEADYYCQGYDWDTQGVVFGGGTKLTVL
0.000181

Ref: patent US20220064276A1
